# IC50 per entry
measuredTarget: Endothelial lipase (EL) (Homo sapiens, UniProt Q9Y5X9)
Construct: HT-1080 cells that were transformed using RAGE technology (Athersys) to overexpress endogenous EL; endogenous in cells; conditioned medium used
Sequence (Q9Y5X9 21-500): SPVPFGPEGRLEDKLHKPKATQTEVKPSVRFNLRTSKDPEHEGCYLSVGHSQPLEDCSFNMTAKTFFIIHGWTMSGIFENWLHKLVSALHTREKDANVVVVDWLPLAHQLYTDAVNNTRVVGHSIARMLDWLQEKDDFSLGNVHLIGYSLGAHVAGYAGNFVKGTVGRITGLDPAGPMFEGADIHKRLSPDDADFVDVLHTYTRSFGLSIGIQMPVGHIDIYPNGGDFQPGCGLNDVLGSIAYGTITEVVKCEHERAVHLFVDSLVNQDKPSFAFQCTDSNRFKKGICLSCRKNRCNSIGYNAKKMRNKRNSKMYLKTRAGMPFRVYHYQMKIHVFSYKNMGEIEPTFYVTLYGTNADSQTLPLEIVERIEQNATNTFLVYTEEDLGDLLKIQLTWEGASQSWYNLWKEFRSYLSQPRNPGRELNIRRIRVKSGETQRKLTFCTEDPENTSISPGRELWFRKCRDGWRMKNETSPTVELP
experimentDescription: Endothelial lipase (EL) enzymatic assay, fluorescent substrate A10070 in DMPG vesicles
Format: biochemical
studyConditions: EL from conditioned media of HT-1080 cells; compound preincubated 30 min at 37° C; read-out: EL IC50

# example entries with known answers
CCCS(=O)(=O)C(c1nnc(CNS(N)(=O)=O)o1)c1nc2ccc(-c3ccccc3)cc2s1 (centres unmarked) = < 10 nM
NS(=O)(=O)NCc1nnc(C(c2nc3ccc(-c4ccccc4)cc3s2)S(=O)(=O)CCC(F)(F)F)o1 (centres unmarked) = < 10 nM
Cc1nn(C)cc1-c1ccc2nc(C(c3nnc(CC4SC(=O)NC4=O)o3)S(C)(=O)=O)sc2c1 (centres unmarked) = < 10 nM

query: Name the recorded IC50 for O=C1NC(=O)C(Cc2nnc(C(c3nc4cc(F)c(-c5ccccc5)cc4s3)S(=O)(=O)Cc3ccccc3)o2)S1 (centres unmarked) .
result: < 10 nM

query: What does the record list as IC50 for NS(=O)(=O)NCc1nnc(C(c2nc3ccc(-c4ccccc4)cc3s2)S(=O)(=O)Cc2cc(Cl)cc(Cl)c2)o1 (centres unmarked) ?
result: < 10 nM

query: // query IC50 value for entry CS(=O)(=O)C(c1nnc(C[C@@H]2NS(=O)(=O)N(C3CC3)C2=O)o1)c1nc2ccc(-c3ccccc3)cc2s1 (some centres unmarked)
result: 130 nM

query: # IC50 lookup, item CC1(Cc2nnc(C(c3nc4ccc(-c5cccc(C(=O)NC6CC(F)(F)C6)c5)cc4s3)S(C)(=O)=O)o2)NC(=O)NC1=O (centres unmarked)
result: 32 nM

query: Would you kindly share the measured IC50 for O=C(OCc1ccccc1)N1CCC(S(=O)(=O)C(c2nnc(CS(=O)(=O)O)o2)c2nc3ccc(-c4ccccc4)cc3s2)CC1 (centres unmarked) ?
result: < 10 nM

query: Name the recorded IC50 for CC(C)C(=O)NCc1nnc(C(c2nc3ccc(-c4ccccc4)cc3s2)S(C)(=O)=O)o1 (centres unmarked) .
result: 195 nM

query: I would be grateful if you could share the reported IC50 for CC(O)(c1nnc(CNS(N)(=O)=O)o1)c1nc2ccc(-c3ccc(F)nc3)cc2s1 (centres unmarked) [Reference 4, reference compound] .
result: 14900 nM

query: Returns the measured IC50 for the input compound. Input: CS(=O)(=O)C(c1nnc(CC2SC(=O)NC2=O)o1)c1nc2ccc(-c3ccc(F)nc3)cc2s1 (centres unmarked)
result: < 10 nM

query: Which IC50 reading was recorded for the compound CS(=O)(=O)C(c1nnc(CC2SC(=O)NC2=O)o1)c1nc2ccc(-c3ccc(C(=O)N4CCOCC4)cc3)cc2s1 (centres unmarked) ?
result: < 10 nM

query: Looking for the measured IC50 of NS(=O)(=O)NCc1nnc(C(c2nc3ccc(-c4ccccc4)cc3s2)S(=O)(=O)CCCc2ccccc2)o1 (centres unmarked) , can you help?
result: ~10 nM

query: Quick one: IC50 of CS(=O)(=O)C(c1nnc(CC2NC(=O)NC2=O)o1)c1nc2ccc(-c3ccccc3)cc2s1 (centres unmarked) ?
result: 16 nM

----------
measuredTarget: hepatic lipase (HL) (Homo sapiens, UniProt P11150)
Construct: made in house; host or cells: COS cells (conditioned medium, partially purified)
Sequence (P11150 23-499): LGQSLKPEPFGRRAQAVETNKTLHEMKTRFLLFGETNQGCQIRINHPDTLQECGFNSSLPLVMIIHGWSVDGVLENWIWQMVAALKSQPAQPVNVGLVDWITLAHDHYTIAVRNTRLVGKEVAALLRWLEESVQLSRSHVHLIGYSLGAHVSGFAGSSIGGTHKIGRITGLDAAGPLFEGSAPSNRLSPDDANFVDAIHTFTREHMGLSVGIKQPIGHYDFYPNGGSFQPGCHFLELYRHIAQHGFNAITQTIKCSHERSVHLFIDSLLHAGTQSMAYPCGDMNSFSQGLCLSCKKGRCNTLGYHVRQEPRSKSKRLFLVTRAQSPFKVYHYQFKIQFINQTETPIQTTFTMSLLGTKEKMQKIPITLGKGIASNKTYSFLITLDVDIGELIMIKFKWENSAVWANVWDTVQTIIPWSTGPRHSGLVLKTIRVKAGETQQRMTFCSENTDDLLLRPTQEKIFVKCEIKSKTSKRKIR
experimentDescription: Hepatic lipase (HL) enzymatic assay, fluorescent substrate A10070 in DMPG vesicles
Assay type: biochemical
studyConditions: HL partially purified from conditioned media of COS cells; compound preincubated 30 min at 37° C; read-out: HL IC50
pIC50: −log10 of the molar value.
Everything with pIC50 lower than 7 is No; everything else, including exactly 7, is Yes.

Use the examples below as a reference point.
CS(=O)(=O)C(c1nnc(C[C@@H]2NS(=O)(=O)NC2=O)o1)c1nc2cc(F)c(-c3ccccc3)cc2s1 (some centres unmarked) = Yes
COC(=O)CCS(=O)(=O)C(c1nnc(CNS(N)(=O)=O)o1)c1nc2ccc(-c3cnn(C)c3)cc2s1 (centres unmarked) = Yes
CC1(Cc2nnc(C(c3nc4ccc(-c5cccc(C(=O)N6CCOCC6)c5)cc4s3)S(C)(=O)=O)o2)NC(=O)NC1=O (centres unmarked) = No

query: Reported pIC50 at or above 7? COCCS(=O)(=O)C(c1nnc(CNS(=O)(=O)NC(=O)OC(C)(C)C)o1)c1nc2ccc(-c3cc(F)cc(Cl)c3)cc2s1 (centres unmarked)
result: Yes

query: Please check the record NS(=O)(=O)NCc1nnc(C(c2nc3ccc(C(=O)N4CCOCC4)cc3s2)S(=O)(=O)Cc2ccccc2)o1 (centres unmarked) and state if its pIC50 is at or above 7.
result: No

query: Has CC(C)CN(C)C(=O)c1cccc(-c2ccc3nc(C(c4nnc(CC5(C)NC(=O)NC5=O)o4)S(C)(=O)=O)sc3c2)c1 (centres unmarked) a recorded pIC50 greater than or equal to 7?
result: Yes

query: Identify whether the reported pIC50 of the following compound is 7 or greater: COCCN(C)C(=O)c1cccc(-c2ccc3nc(C(c4nnc(CC5(C)NC(=O)NC5=O)o4)S(C)(=O)=O)sc3c2)c1 (centres unmarked)
result: No

query: Decide: pIC50 of CS(=O)(=O)C(c1nnc(CNS(N)(=O)=O)o1)c1nc2ccc(-c3cccc(C(=O)NCCO)c3)cc2s1 (centres unmarked) >= 7?
result: Yes

query: Record CS(=O)(=O)NCc1nnc(C(c2nc3ccc(-c4ccc(F)nc4)cc3s2)S(C)(=O)=O)o1 (centres unmarked) ; criterion: pIC50 no lower than 7. Met?
result: Yes

----------
measuredTarget: Endothelial lipase (EL) (Homo sapiens, UniProt Q9Y5X9)
Construct: HT-1080 cells that were transformed using RAGE technology (Athersys) to overexpress endogenous EL; endogenous in cells; conditioned medium used
experimentDescription: Endothelial lipase (EL) enzymatic assay, fluorescent substrate A10070 in DMPG vesicles
Type: biochemical
studyConditions: EL from conditioned media of HT-1080 cells; compound preincubated 30 min at 37° C; read-out: EL IC50
IC50 reference
# value in nM; strip the unit string

CO[C@@H]1CCN(C(=O)c2cccc(-c3ccc4nc(C(c5nnc(CC6(C)NC(=O)NC6=O)o5)S(C)(=O)=O)sc4c3)c2)C1 (stereo partly shown) = 2

query: What is its IC50 for Endothelial lipase (EL) (Homo sapiens, UniProt Q9Y5X9)? Entry: CS(=O)(=O)C(c1nnc(CNS(N)(=O)=O)o1)c1nc2ccc(-c3cccc(C(=O)N4CC(O)C4)c3)cc2s1 (stereo not shown)
result: 10

----------
measuredTarget: Endothelial lipase (EL) (Homo sapiens)
Construct: HT-1080 cells that were transformed using RAGE technology (Athersys) to overexpress endogenous EL; endogenous in cells; conditioned medium used
experimentDescription: Endothelial lipase (EL) enzymatic assay, fluorescent substrate A10070 in DMPG vesicles
Format: biochemical
studyConditions: EL from conditioned media of HT-1080 cells; compound preincubated 30 min at 37° C; read-out: EL IC50
Listing of recorded pIC50 by entry.
The read-out pIC50 is expressed as -log10 of concentration in moles per litre.

query: Give its pIC50 value. Item: CC(C)(C)OC(=O)Cc1nnc(C(c2nc3ccc(-c4ccc(C(=O)N5CCOCC5)cc4)cc3s2)S(C)(=O)=O)o1 (centres unmarked) [Example 107]
result: 7.55

query: What value of pIC50 has been recorded for this entry: NS(=O)(=O)NCc1nnc(C(c2nc3ccc(-c4ccc(F)nc4)cc3s2)S(=O)(=O)Cc2ccc(C(F)(F)F)cc2)o1 (centres unmarked) [Example 238]
result: 8.40

query: Using the record for CCOCC(=O)NCc1nnc(C(c2nc3ccc(-c4ccccc4)cc3s2)S(C)(=O)=O)o1 (centres unmarked) [Example 157] , report its pIC50.
result: 6.65

----------
measuredTarget: hepatic lipase (HL) (Homo sapiens, UniProt P11150)
Construct: made in house; host or cells: COS cells (conditioned medium, partially purified)
experimentDescription: Hepatic lipase (HL) enzymatic assay, fluorescent substrate A10070 in DMPG vesicles
Type: biochemical
studyConditions: HL partially purified from conditioned media of COS cells; compound preincubated 30 min at 37° C; read-out: HL IC50
pIC50: −log10 of the molar value.
Label rule, in plain words: pIC50 of 7 and up is met, under 7 is not met.

These solved cases illustrate the format of a correct answer.
Cn1cc(-c2cc3sc(C(c4nnc(CNS(N)(=O)=O)o4)S(=O)(=O)Cc4ccccc4)nc3cc2F)cn1 (stereo not shown) = met
COCCNC(=O)c1cccc(-c2ccc3nc(C(c4nnc(CNS(N)(=O)=O)o4)S(C)(=O)=O)sc3c2)c1 (stereo not shown) = met

Now turn to the next molecule.
query: Could you please find out whether CC1(Cc2nnc(C(c3nc4ccc(-c5cccc(C(=O)N6CC[C@@H](O)C6)c5)cc4s3)S(C)(=O)=O)o2)NC(=O)NC1=O (stereo partly shown) has pIC50 that meets 7 or exceeds it?
result: not met
